Taken from PubChem BioAssay AID1347056.

# procedure-summary: TROY pathway blockers in reporter cells – Q293 LMP1-TROYcd cells, NF-kB luciferase, uHTS, primary screen (AID 1347056)
# measurement-conditions: 4 h, at 10 µM, hits give high values
About 3,600 (1%) of roughly 360,000 compounds were called active. Only a selection was taken, and actives are over-represented in it overall.
assay-metric: inhibition (%)
Express the result in % but write the number alone.

Examples with their reported inhibition follow.
INSERT INTO measurements (compound, value_units, numeric_readout) VALUES
  ('CC(=O)N1CCCc2cc(S(=O)(=O)N3CCCC(C(=O)N4CCN(c5cccc(Cl)c5)CC4)C3)ccc21 (centres undefined)', '%', 54.2),
  ('CC(OC(=O)CNC(=O)c1ccc(Cl)c([N+](=O)[O-])c1)C(=O)NCc1ccco1 (centres undefined)', '%', -1.1),
  ('O=C(COc1ccc([N+](=O)[O-])cc1)Nc1cccc(C(=O)Nc2ccccc2C(=O)O)c1', '%', 13.9),
  ('COc1cccc(N2CCN(C(=O)C3CCCN(S(=O)(=O)c4cnc[nH]4)C3)CC2)c1 (centres undefined)', '%', -3.43),
  ('O=C(Cn1cnc2ccccc2c1=O)Nc1cccc(S(=O)(=O)N2CCCCC2)c1', '%', 6.2),
  ('CC(=O)Nc1nc2c(s1)C(=O)NCC(C)(C)C2', '%', 16.5);

For reference, reported inhibition for Cc1ccc(S(=O)(=O)N(C)c2nc3ccccc3n3c(C(C)C)nnc23)cc1 stands at 6.76

For reference, reported inhibition for CCc1ccc(NC(=O)C(C)OC(=O)/C=C/c2cccc([N+](=O)[O-])c2)cc1 (centres undefined) stands at 7.86

For reference, reported inhibition for CCOC(=O)c1cnc(SCc2nc(N)nc(Nc3ccc(OC)cc3)n2)nc1N stands at -4.61

---

# procedure-summary: TROY pathway blockers in reporter cells – Q293 LMP1-TROYcd cells, NF-kB luciferase, uHTS, primary screen (AID 1347056)
# measurement-conditions: 4 h, at 10 µM
In all, about 360,000 compounds went through this assay and about 3,600 (1%) were called active.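 How the source made its calls: active means compounds whose plate-normalised and pattern-corrected inhibition of the luciferase reporter signal at the single screening dose is 50% or more; inactive means the rest.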 This excerpt belongs to a sample that is enriched for actives.
Give one outcome, nothing more. List: 1 (active), 0 (inactive)

Examples with answers:
INSERT INTO measurements (molecule, label) VALUES
  ('COc1ccccc1-c1oc2ccccc2c1C#CCCCCO', 0),
  ('CN(C)c1nc(=Nc2cccc(Cl)c2)ss1', 0);

Q: Short answer needed: outcome of this test for COc1ccccc1N=Cc1c(O)c2ccccc2oc1=O ?
Ans: 1

Q: Short answer needed: outcome of this test for c1ccc(CN2CCC(N=C3NN=C(c4ccc5c(c4)OCCO5)CS3)CC2)cc1 ?
Ans: 1

Q: Short answer needed: outcome of this test for O=c1oc2ccccc2c(=O)c2ccccc12 ?
Ans: 0

---

# procedure-summary: TROY pathway blockers in reporter cells – Q293 LMP1-TROYcd cells, NF-kB luciferase, uHTS, primary screen (AID 1347056)
# measurement-conditions: 4 h, at 10 µM
About 3,600 (1%) of roughly 360,000 compounds were called active.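 Rule for the calls: active = compounds whose plate-normalised and pattern-corrected inhibition of the luciferase reporter signal at the single screening dose is 50% or more; inactive = the rest.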 This excerpt belongs to a sample that is enriched for actives.
Give one outcome, nothing more. List: t = active, f = inactive

INSERT INTO results (molecule, label) VALUES
  ('O=S(=O)(Cc1cc(Sc2ccccc2)nc(-c2ccccc2)n1)c1ccccc1', 'f'),
  ('O=C(COC(=O)c1ccccn1)NNC(=O)c1ccc([N+](=O)[O-])cc1', 'f'),
  ('CC1CCCN(C(=O)Cn2c(=O)oc3ccccc32)C1 (configuration not stated)', 'f'),
  ('COC(=O)C1(S(=O)(=O)C2(C(=O)OC)CCCC2)CCCC1', 'f'),
  ('Nc1nnc(SCC(=O)NC2CCCc3ccccc32)s1 (configuration not stated)', 'f'),
  ('Cc1ccc2c(c1)N(CC(=O)N1CCCC(C)C1)C(=O)CO2 (configuration not stated)', 'f');

Q: Short answer needed: outcome of this test for COc1cc(/C=C/C(=O)O)cc(S(=O)(=O)Nc2ccccc2C(=O)NCCc2ccccc2)c1OC ?
Ans: f

Q: Short answer needed: outcome of this test for OCc1nc(CO)n(Cc2ccccc2)n1 ?
Ans: f

Q: Short answer needed: outcome of this test for Cc1ccc(NS(=O)(=O)c2ccc(-c3ccc(=O)[nH]n3)o2)c(C)c1 ?
Ans: f

Q: Short answer needed: outcome of this test for COc1ccc(N2CC(C)Cn3c2nc2c3c(=O)n(Cc3ccccc3F)c(=O)n2C)c(OC)c1 (configuration not stated) ?
Ans: f

Q: Short answer needed: outcome of this test for CC1=C(C)CC(C(=O)NNC(=O)c2csc3c2CCC(C(C)(C)C)C3)C(C(=O)O)C1 (configuration not stated) ?
Ans: f
